# Tested on: human Factor 7 mRNA
# Assay overview: Antisense inhibition of human Factor 7 mRNA in HepB3 cells, 50 nM antisense oligonucleotide, lipofectin
# Assay type: cell-based
# Condition summary: lipofectin, 50 nM antisense oligonucleotide, approximately 24 hours, Factor 7 mRNA by real-time RT-PCR (RTS 2927), relative to untreated control
# Experimental: Antisense oligonucleotides targeted to a Factor 7 nucleic acid were tested for their effects on Factor 7 mRNA in vitro. […] After a treatment period of approximately 24 hours, RNA was isolated from the cells and Factor 7 mRNA levels were measured by real-time RT-PCR, as described herein. Factor 7 mRNA levels were adjusted according to total RNA content as measured by RIBOGREEN®. […]
Strand notation (5' to 3'): a small letter for the sugar, then the base; units joined by * are phosphorothioate-linked, units joined directly phosphodiester-linked; [ ] holds rarer units or linkages, { } end groups; capitals alone tell only the bases. e = 2'-O-(2-methoxyethyl) (MOE); [5mC] = 5-methylcytosine; d = 2'-deoxy (DNA)
Readout label: % Inhibition

Some solved entries appear below for comparison.
Substance	Readout label	Result
416488 (antisense e[5mC]*eA*eG*eG*eT*d[5mC]*d[5mC]*dT*d[5mC]*d[5mC]*d[5mC]*dA*d[5mC]*dT*dG*e[5mC]*eA*eG*e[5mC]*e[5mC]) [compound 416488]	% Inhibition	41%
416485 (antisense eG*eA*eG*e[5mC]*eT*dA*d[5mC]*dA*dG*d[5mC]*d[5mC]*dT*d[5mC]*dA*dA*eA*e[5mC]*eA*eT*e[5mC]) [compound 416485]	% Inhibition	7%

# ---- query substance ----
Qu. Tell me the measured % Inhibition of 416453 (antisense eG*eA*eT*eT*eT*dT*dG*dT*d[5mC]*dG*dA*dA*dA*d[5mC]*dA*eG*eT*eG*eG*eG) [compound 416453] , please.
Ans. 45%

* * *

# Tested on: human Factor 7 mRNA
# Assay overview: Antisense inhibition of human Factor 7 mRNA in HepB3 cells, 50 nM antisense oligonucleotide, lipofectin
# Assay type: cell-based
# Condition summary: Table 13 (microwalk), 50 nM, lipofectin, approximately 24 hours
Strand notation (5' to 3'): a small letter for the sugar, then the base; units joined by * are phosphorothioate-linked, units joined directly phosphodiester-linked; [ ] holds rarer units or linkages, { } end groups; capitals alone tell only the bases. e = 2'-O-(2-methoxyethyl) (MOE); [5mC] = 5-methylcytosine; d = 2'-deoxy (DNA)
Overview of recorded % Inhibition for various substances
# output: number + unit

# annotated cases, reported % Inhibition shown
Substance	System under test	Readout label	Result
422226 (antisense e[5mC]*eA*dT*dG*dG*dT*dG*dA*dT*dG*d[5mC]*dT*dT*d[5mC]*dT*eG*eA*eA*eT*eT) [compound 422226]	human Factor 7 mRNA	% Inhibition	41%
422152 (antisense eA*eT*eG*d[5mC]*dA*dT*dG*dG*dT*dG*dA*dT*dG*d[5mC]*dT*dT*d[5mC]*eT*eG*eA) [compound 422152]	human Factor 7 mRNA	% Inhibition	74%

Lab note: next substance to report on.
Qu. Consider the substance shown here: 422085 (antisense eG*e[5mC]*eA*eT*eG*dG*dT*dG*dA*dT*dG*d[5mC]*dT*dT*d[5mC]*eT*eG*eA*eA*eT) [compound 422085] What is its recorded % Inhibition?
Ans. 70%

* * *

# Tested on: human Factor 7 mRNA
# Assay overview: Dose-dependent antisense inhibition of human Factor 7 in HepB3 cells, electroporation
# Type: cell-based
# Condition summary: 50 μM, approx. 16 hours (Table 16, Example 8 confirmation)
# Experimental: The gapmers were also transfected via electroporation and their dose-dependent inhibition of human Factor 7 mRNA was measured. […] After a treatment period of approximately 16 hours, RNA was isolated from the cells and Factor 7 mRNA levels were measured by quantitative real-time PCR. […] Factor 7 mRNA levels were adjusted according to total RNA content, as measured by RIBOGREEN®. […]
Strand notation (5' to 3'): a small letter for the sugar, then the base; units joined by * are phosphorothioate-linked, units joined directly phosphodiester-linked; [ ] holds rarer units or linkages, { } end groups; capitals alone tell only the bases. e = 2'-O-(2-methoxyethyl) (MOE); [5mC] = 5-methylcytosine; d = 2'-deoxy (DNA)
Below, each of the substances is paired with its reported percent inhibition of Factor 7 mRNA, relative to untreated control cells value.
Your answer should be a plain number; it is taken to be in %.

Example results:
Substance	Recorded number
422296 (antisense e[5mC]*e[5mC]*dG*dA*dG*dT*dT*d[5mC]*dT*dG*d[5mC]*dA*dG*dG*dA*eG*e[5mC]*eG*eG*e[5mC]) [compound 422296]	80
422130 (antisense eG*e[5mC]*e[5mC]*eT*eG*dA*dG*dG*d[5mC]*d[5mC]*dA*dG*d[5mC]*dA*dG*eA*eT*e[5mC]*eA*e[5mC]) [compound 422130]	82
422150 (antisense eG*e[5mC]*eA*dT*dG*dG*dT*dG*dA*dT*dG*d[5mC]*dT*dT*d[5mC]*dT*dG*eA*eA*eT) [compound 422150]	77
407935 (antisense eA*eT*eG*e[5mC]*eA*dT*dG*dG*dT*dG*dA*dT*dG*d[5mC]*dT*eT*e[5mC]*eT*eG*eA) [compound 407935]	90
422086 (antisense eT*eG*e[5mC]*eA*eT*dG*dG*dT*dG*dA*dT*dG*d[5mC]*dT*dT*e[5mC]*eT*eG*eA*eA) [compound 422086]	86

In the following, a different substance is considered.
Qu. Any idea what its percent inhibition of Factor 7 mRNA, relative to untreated control cells is? The substance is 422292 (antisense eG*eT*dT*d[5mC]*dT*dG*d[5mC]*dA*dG*dG*dA*dG*d[5mC]*dG*dG*e[5mC]*e[5mC]*eT*eA*eA) [compound 422292]
Ans. 82

* * *

# Test system: human Factor 7 mRNA
# Assay overview: Antisense inhibition of human Factor 7 mRNA in HepB3 cells, 50 nM antisense oligonucleotide, lipofectin
# Assay type: cell-based
# Condition summary: oligonucleotides targeted to nucleobases 15098 to 15122 of SEQ ID NO: 1 (Table 12)
Strand notation (5' to 3'): a small letter for the sugar, then the base; units joined by * are phosphorothioate-linked, units joined directly phosphodiester-linked; [ ] holds rarer units or linkages, { } end groups; capitals alone tell only the bases. e = 2'-O-(2-methoxyethyl) (MOE); [5mC] = 5-methylcytosine; d = 2'-deoxy (DNA)
Measured % Inhibition (human Factor 7 mRNA levels), listed per entry.
Could you give me the number in %? Just the number is fine.

Substance	Recorded number
422287 (antisense e[5mC]*eA*dG*d[5mC]*dA*d[5mC]*dA*d[5mC]*dA*dT*dG*dG*dA*dG*dT*e[5mC]*eA*eG*e[5mC]*eA) [compound 422287]	41
422284 (antisense e[5mC]*eA*d[5mC]*dA*d[5mC]*dA*dT*dG*dG*dA*dG*dT*d[5mC]*dA*dG*e[5mC]*eA*eT*e[5mC]*eG) [compound 422284]	43
422209 (antisense eA*eG*e[5mC]*dA*d[5mC]*dA*d[5mC]*dA*dT*dG*dG*dA*dG*dT*d[5mC]*dA*dG*e[5mC]*eA*eT) [compound 422209]	47
422288 (antisense eA*e[5mC]*dA*dG*d[5mC]*dA*d[5mC]*dA*d[5mC]*dA*dT*dG*dG*dA*dG*eT*e[5mC]*eA*eG*e[5mC]) [compound 422288]	44

Qu. Field request: % Inhibition (human Factor 7 mRNA levels) | item: 422211 (antisense eA*e[5mC]*eA*dG*d[5mC]*dA*d[5mC]*dA*d[5mC]*dA*dT*dG*dG*dA*dG*dT*d[5mC]*eA*eG*e[5mC]) [compound 422211]
Ans. 42

Qu. What does the data say about its % Inhibition (human Factor 7 mRNA levels)? Entry: 422207 (antisense e[5mC]*eA*e[5mC]*dA*d[5mC]*dA*dT*dG*dG*dA*dG*dT*d[5mC]*dA*dG*d[5mC]*dA*eT*e[5mC]*eG) [compound 422207]
Ans. 41

Qu. Give the measured % Inhibition (human Factor 7 mRNA levels) of 422137 (antisense eA*e[5mC]*eA*eG*e[5mC]*dA*d[5mC]*dA*d[5mC]*dA*dT*dG*dG*dA*dG*eT*e[5mC]*eA*eG*e[5mC]) [compound 422137] .
Ans. 45

Qu. Would you mind telling me what % Inhibition (human Factor 7 mRNA levels) value was observed for 422286 (antisense eA*eG*d[5mC]*dA*d[5mC]*dA*d[5mC]*dA*dT*dG*dG*dA*dG*dT*d[5mC]*eA*eG*e[5mC]*eA*eT) [compound 422286] ?
Ans. 53

* * *

# Test system: human Factor 7 mRNA
# Assay overview: Antisense inhibition of human Factor 7 mRNA in HepB3 cells, 50 nM antisense oligonucleotide, lipofectin
# Assay type: cell-based
# Condition summary: Table 1, 50 nM, lipofectin, approximately 24 hours, relative to untreated control cells
Strand notation (5' to 3'): a small letter for the sugar, then the base; units joined by * are phosphorothioate-linked, units joined directly phosphodiester-linked; [ ] holds rarer units or linkages, { } end groups; capitals alone tell only the bases. e = 2'-O-(2-methoxyethyl) (MOE); [5mC] = 5-methylcytosine; d = 2'-deoxy (DNA)
As shown below, each of these substances has a reported % Inhibition value.
The figure you give is taken to be in %; do not add the unit.

Completed entries (count: 2):
Substance	Display unit	% Inhibition
407890 (antisense e[5mC]*eA*eG*eG*eG*dA*dG*d[5mC]*d[5mC]*d[5mC]*dG*dG*d[5mC]*d[5mC]*dG*e[5mC]*eA*eG*e[5mC]*eT) [compound 407890]	%	60
407950 (antisense eA*eG*e[5mC]*eT*eT*d[5mC]*d[5mC]*dA*dT*dG*dT*dG*dA*dG*dG*eG*eT*eT*e[5mC]*eA) [compound 407950]	%	58

The record that follows has no % Inhibition shown yet.
Qu. I am curious: what % Inhibition value has been reported for 407904 (antisense eG*eA*eA*eA*e[5mC]*dA*dG*dT*dG*dG*dG*d[5mC]*d[5mC]*dG*d[5mC]*eG*eG*eA*eG*eA) [compound 407904] ?
Ans. 83

Source of measurements: patent US9029337B2
